Values from ChEMBL document CHEMBL1149642

- System: Staphylococcus aureus
- ASSAY: Antibacterial activity against methicillin-resistant Staphylococcus aureus ATCC 33592 by broth dilution method
- Assay type: functional
QUANTITY: log10(MIC) (log10 of the value in µg/mL)
Please note: log10 values; quantity MIC; unit µg/mL.

Consider the following items and state reported log10(MIC) for each.
1. CCCCCC(CC)Cc1cccc(O)c1C(=O)O (stereo unspecified)
2. O=C(O)c1c(O)cccc1CC1CCCCC1
3. O=C(O)c1c(O)cccc1CCC1CCCCC1
4. O=C(O)c1c(O)cccc1CCc1ccccc1
5. CC(C)CCCC(C)CCCc1cccc(O)c1C(=O)O (stereo unspecified)
6. O=C(O)c1c(O)cccc1CCc1ccc(O)c(O)c1
7. O=C(O)c1c(O)cccc1CCc1cc(O)ccc1O

1: 0.80; 2: 1.40; 3: 1.10; 4: 2.00; 5: -0.41; 6: 2.00; 7: 2.00

Kindly give each listed record's log10(MIC).
1. O=C(O)c1c(O)cccc1CC1CCCC1
2. O=C(O)c1c(O)cccc1CC1CCCCCCCCCCC1

2.00
-0.41
